Biological target: UniProt:Q9HC97
Assay: Antagonist activity at GPR35 (unknown origin)
quantity-measured: IC50 (µM)

>>> obs_value("O=C(O)c1cc(=O)c2ccccc2[nH]1 [TRANSTORINE]")
39

====

Biological target: G-protein coupled receptor 35 (Homo sapiens)
Sequence (Q9HC97 whole entry, the tested form may be a part): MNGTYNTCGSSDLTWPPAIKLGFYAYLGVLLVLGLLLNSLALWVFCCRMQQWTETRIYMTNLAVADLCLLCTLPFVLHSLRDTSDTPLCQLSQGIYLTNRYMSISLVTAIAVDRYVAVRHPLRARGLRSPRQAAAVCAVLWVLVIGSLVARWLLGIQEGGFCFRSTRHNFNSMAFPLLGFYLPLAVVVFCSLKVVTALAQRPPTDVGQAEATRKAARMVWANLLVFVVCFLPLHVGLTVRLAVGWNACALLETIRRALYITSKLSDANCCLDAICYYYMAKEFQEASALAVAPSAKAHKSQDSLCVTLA
Assay: Antagonist activity at HA tagged GPR35a (unknown origin) expressed in human U2OS cells co-expressing GFP-fused beta arrestin-2 assessed as inhibition of zaprinast induced effect
Type: cell-based
Just a reminder that ties go to no: only IC50 strictly below 10 µM counts as yes.

>>> assigned_label("CC(Sc1nc2ccc(NC(=O)c3ccccc3C(=O)N3CCOCC3)cc2s1)c1ccc(Cl)cc1 (stereo unspecified)")
"no"
>>> assigned_label("O=C(Nc1ccc2nc(S(=O)(=O)Cc3ccc(Cl)cc3)sc2c1)c1ccccc1C(=O)N1CCOCC1")
"yes"
>>> assigned_label("O=C(Nc1ccc2nc([S+]([O-])Cc3ccc(Cl)cc3)sc2c1)c1ccccc1C(=O)N1CCOCC1 (stereo unspecified)")
"no"
>>> assigned_label("O=C(Nc1ccc2nc(SCc3ccc(Cl)cc3)[nH]c2c1)c1ccccc1C(=O)N1CCOCC1")
"no"
>>> assigned_label("O=C(Nc1ccc2nc(SCc3ccc(Cl)cc3)sc2c1)c1ccccc1C(=O)N1CCOCC1")
"yes"
>>> assigned_label("O=C(Nc1ccc2nc([S@@+]([O-])Cc3ccc(Cl)cc3)sc2c1)c1ccccc1C(=O)N1CCOCC1")
"no"
>>> assigned_label("O=C(Nc1ccc2nc([S@+]([O-])Cc3ccc(Cl)cc3)sc2c1)c1ccccc1C(=O)N1CCOCC1")
"no"
>>> assigned_label("O=C(Nc1ccc2nc(SCc3ccc(Cl)cc3)sc2c1)c1ccccc1C(=O)N1CCCC1")
"no"
>>> assigned_label("O=C(Nc1ccc2nc(SCc3ccc(Cl)cc3)sc2c1)c1ccccc1C(=O)N1CCCCC1")
"no"
>>> assigned_label("O=C(Nc1ccc2nc(SCc3ccccc3)sc2c1)c1ccccc1C(=O)N1CCOCC1")
"yes"
>>> assigned_label("O=C(Nc1ccc2nc(SCc3ccncc3)sc2c1)c1ccccc1C(=O)N1CCOCC1")
"no"
